Numbers sourced from patent US8309725B2.

Biological target: κ receptor (Cavia porcellus, UniProt P41144)
Construct: sucrose solution (0.32 M) was added to five guinea pig brains and the mixture was homogenized; from tissue; host or cells: whole guinea pig brain membrane homogenate
Sequence (P41144 whole entry): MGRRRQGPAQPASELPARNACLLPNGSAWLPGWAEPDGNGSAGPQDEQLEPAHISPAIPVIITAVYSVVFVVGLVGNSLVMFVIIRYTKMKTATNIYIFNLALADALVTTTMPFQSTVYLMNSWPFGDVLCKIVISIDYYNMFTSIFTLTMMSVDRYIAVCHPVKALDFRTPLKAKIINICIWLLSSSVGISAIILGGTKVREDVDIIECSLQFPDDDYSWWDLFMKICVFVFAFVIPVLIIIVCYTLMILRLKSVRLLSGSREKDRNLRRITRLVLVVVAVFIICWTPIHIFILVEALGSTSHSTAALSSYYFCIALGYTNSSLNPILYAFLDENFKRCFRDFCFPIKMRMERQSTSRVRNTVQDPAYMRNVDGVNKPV
Test: biochemical
Assay type: binding, guinea pig
pKi: −log10 of the molar value.

| COMPOUND | SYSTEM NAME | pKi |
| --- | --- | --- |
| O=C(Cc1ccc(Cl)c(Cl)c1)N1CCN(Cc2cccnc2)[C@@H]2CCC[C@H](N3CCCC3)[C@H]21 (racemic) [Example 22] | κ receptor (Cavia porcellus, UniProt P41144) | 9.89 |
| CCCCN1CCN(C(=O)Cc2ccc(Cl)c(Cl)c2)[C@H]2[C@H]1CCC[C@@H]2N1CCCC1 (racemic) [Example 19] | κ receptor (Cavia porcellus, UniProt P41144) | 8.51 |
| COC(=O)CC(=O)N1CCN(C(=O)Cc2ccc(Cl)c(Cl)c2)[C@H]2[C@H]1CCC[C@@H]2N1CCCC1 (racemic) [Example 13] | κ receptor (Cavia porcellus, UniProt P41144) | 7.96 |
| O=C(Cc1ccc(Cl)c(Cl)c1)N1CCN(Cc2ccccn2)[C@@H]2CCC[C@H](N3CCCC3)[C@H]21 (racemic) [Example 21] | κ receptor (Cavia porcellus, UniProt P41144) | 8.38 |
| COc1ccc(CN2CCN(C(=O)Cc3ccc(Cl)c(Cl)c3)[C@H]3[C@H]2CCC[C@@H]3N2CCCC2)cc1 (racemic) [Example 20] | κ receptor (Cavia porcellus, UniProt P41144) | 8.17 |

###

Molecular target: κ receptor (Cavia porcellus)
Construct: sucrose solution (0.32 M) was added to five guinea pig brains and the mixture was homogenized; from tissue; host or cells: whole guinea pig brain membrane homogenate
Test: biochemical
Type: binding, guinea pig
Conditions: read-out: κ: Ki ± SEM

| MOLECULE | Ki [nM] |
| --- | --- |
| O=C(O)CC(=O)N1CCN(C(=O)Cc2ccc(Cl)c(Cl)c2)C2C(N3CCC(O)C3)CCCC21 (stereo not drawn) | 482 |
| COC(=O)N1CCN(C(=O)Cc2ccc(Cl)c(Cl)c2)C2C(N3CCC(O)C3)CCCC21 (stereo not drawn) | 11 |
| COC(=O)CC(=O)N1CCN(C(=O)Cc2ccc(Cl)c(Cl)c2)C2C(N3CCC(O)C3)CCCC21 (stereo not drawn) | 18 |
| O=C(Cc1ccc(Cl)c(Cl)c1)N1CCN(Cc2ccccc2)C2CCCC(N3CCC(O)C3)C21 (stereo not drawn) | 6.6 |
| O=C(Cc1ccc(Cl)c(Cl)c1)N1CCN(Cc2cccnc2)C2CCCC(N3CCC(O)C3)C21 (stereo not drawn) | 3.8 |
| O=C(c1ccccc1)N1CCN(C(=O)Cc2ccc(Cl)c(Cl)c2)C2C(N3CCC(O)C3)CCCC21 (stereo not drawn) | 22 |
